target: h-mT1R2-481/T1R3mosaicB (UniProt Q8TE23+Q925D8, A537S/A558R/A564V/A568V/A570T/A588V/A645S/A649T/A658V/A698V/A702T/A782V/A793V/A807V/A88D/C582S/C678S/E530V/E534N/E542M/E548N/E725V/F525Y/F541I/F612A/F622V/F665L/F695L/F71L/G696N/G701T/G86K/H484Y/H528R/H728R/I152V/I481V/I486P/I490V/I510L/I518V/I595M/I617V/I643V/I645L/I692L/I695G/I706V/I740A/I803L/K504M/K555R/K565R/K626T/K714N/K818R/K827G/L151M/L521P/L560F/L571I/L578I/L610P/L631F/L636F/L639V/L684P/L688V/L68N/L702I/L72W/L734M/L735F/L800F/L823M/L825Q/M492I/M616G/M644L/M682V/M690V/M744T/M748V/M74L/N540G/N541S/N547G/N675D/N721H/P545F/P561R/P564S/P638T/P67S/P824S/Q123R/Q536L/Q546K/Q550E/Q555R/Q611L/Q676H/Q757R/Q795R/Q831P/R498S/R632Q/R667S/S112P/S124D/S501P/S547N/S550A/S576L/S595F/S610P/S628F/S635P/S637R/S663R/S670G/S679G/S681F/S703N/S717H/S727G/S784D/S804G/T109A/T529S/T542A/T549I/T609V/T629S/T642S/T663I/T694M/T705I/T706G/T716I/T813A/V120A/V508I/V512P/V557A/V573A/V584A/V585L/V613L/V617M/V673M/V687A/V691A/V694A/V718L/V718M/V723A/V729T/V738A/V741L/V774I/V791M/V805L/V812A/V821L/W599R/W676R/W824R/Y533F/Y615F/Y671F/Y680C/Y769S/Y783H/Y794L); settings: Table 6; genes h-mT481/T1R3mB (h-mT1R2-481, T1R3mB); HEK293E cells
Sequence (Q8TE23 with tags, fused parts or gaps with the stated changes limits assumed): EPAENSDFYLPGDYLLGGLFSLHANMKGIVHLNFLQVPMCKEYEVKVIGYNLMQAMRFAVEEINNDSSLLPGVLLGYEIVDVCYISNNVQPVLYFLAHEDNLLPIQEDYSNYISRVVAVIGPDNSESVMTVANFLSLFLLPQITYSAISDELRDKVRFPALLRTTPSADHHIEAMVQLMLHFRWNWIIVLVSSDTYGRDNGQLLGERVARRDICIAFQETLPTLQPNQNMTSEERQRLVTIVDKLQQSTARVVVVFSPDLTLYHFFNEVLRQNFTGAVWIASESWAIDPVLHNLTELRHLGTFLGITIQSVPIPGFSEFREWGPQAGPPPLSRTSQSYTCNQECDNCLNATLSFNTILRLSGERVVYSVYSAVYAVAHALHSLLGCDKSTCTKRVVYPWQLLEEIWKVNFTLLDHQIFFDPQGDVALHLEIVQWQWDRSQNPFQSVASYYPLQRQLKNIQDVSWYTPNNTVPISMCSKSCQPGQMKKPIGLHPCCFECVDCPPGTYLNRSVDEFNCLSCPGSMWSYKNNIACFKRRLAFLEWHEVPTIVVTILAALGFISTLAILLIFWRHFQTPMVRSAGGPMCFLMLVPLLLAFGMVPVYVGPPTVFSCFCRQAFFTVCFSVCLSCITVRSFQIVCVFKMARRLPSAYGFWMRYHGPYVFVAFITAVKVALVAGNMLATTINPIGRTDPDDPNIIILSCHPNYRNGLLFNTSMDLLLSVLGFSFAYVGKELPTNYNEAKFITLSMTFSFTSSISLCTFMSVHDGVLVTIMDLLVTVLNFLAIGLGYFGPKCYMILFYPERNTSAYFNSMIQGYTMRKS
Sequence (Q925D8 with tags, fused parts or gaps with the stated changes limits assumed): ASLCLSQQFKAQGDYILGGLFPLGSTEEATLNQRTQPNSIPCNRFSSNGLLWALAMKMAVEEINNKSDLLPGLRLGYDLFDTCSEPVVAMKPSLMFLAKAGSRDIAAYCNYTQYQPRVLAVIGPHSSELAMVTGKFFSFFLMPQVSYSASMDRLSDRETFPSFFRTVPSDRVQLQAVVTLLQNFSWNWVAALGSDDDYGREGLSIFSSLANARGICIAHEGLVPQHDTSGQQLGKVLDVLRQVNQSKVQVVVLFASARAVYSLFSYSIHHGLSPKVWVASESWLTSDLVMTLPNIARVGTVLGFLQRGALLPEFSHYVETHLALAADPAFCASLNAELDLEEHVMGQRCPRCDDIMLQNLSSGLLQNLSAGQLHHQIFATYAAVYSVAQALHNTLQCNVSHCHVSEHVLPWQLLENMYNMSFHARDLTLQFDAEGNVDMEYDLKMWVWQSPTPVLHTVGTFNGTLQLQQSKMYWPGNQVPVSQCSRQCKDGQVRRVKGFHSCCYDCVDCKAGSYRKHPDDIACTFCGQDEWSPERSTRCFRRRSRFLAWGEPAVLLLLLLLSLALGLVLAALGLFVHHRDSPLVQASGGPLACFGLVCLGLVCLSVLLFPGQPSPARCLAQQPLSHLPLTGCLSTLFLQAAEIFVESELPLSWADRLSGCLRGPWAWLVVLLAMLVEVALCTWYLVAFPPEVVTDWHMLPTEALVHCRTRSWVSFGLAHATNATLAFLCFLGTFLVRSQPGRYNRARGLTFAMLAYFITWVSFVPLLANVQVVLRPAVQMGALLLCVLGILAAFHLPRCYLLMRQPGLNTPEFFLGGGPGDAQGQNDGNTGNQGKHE
Residues, ends and D or L forms follow the SMILES beside them.
Property: S/N
Quick one: just the number, no unit, thanks!

# input Identify measured S/N associated with COC(=O)[C@H](Cc1ccccc1)NC(=O)[C@H](CC(=O)O)NCCCc1ccc(OC)c(O)c1 [Advantame, advantame]
# output 10.2

# input Dear colleague, please send me the reported S/N for COC(=O)[C@H](Cc1ccccc1)NC(=O)[C@@H](N)CC(=O)O [Aspartame, aspartame] (HELM PEPTIDE1{D.F.[CO[*:1]]}$$$$V2.0) when you can.
# output 7.8

# input Give the measured S/N for COc1ccc(CCC(=O)c2c(O)cc(O[C@@H]3O[C@H](CO)[C@@H](O)[C@H](O)[C@H]3O[C@@H]3O[C@@H](C)[C@H](O)[C@@H](O)[C@H]3O)cc2O)cc1O [NHDC, neohesperidin dihydrochalcone]
# output 5.8

# input Determine its reported S/N: CC1=CC(=O)NS(=O)(=O)O1 [Acesulfame K, acesulfame potassium]
# output 5.6

# input State, in one line, measured S/N of OC[C@H]1O[C@@](CO)(O[C@H]2O[C@H](CO)[C@@H](O)[C@H](O)[C@H]2O)[C@@H](O)[C@@H]1O [Sucrose, sucrose]
# output 4.0

# input Read the entry COC(=O)[C@H](Cc1ccccc1)NC(=O)[C@H](CC(=O)O)NCCC(C)(C)C [Neotame, neotame] and write its reported S/N.
# output 7.7

# input Please indicate S/N recorded for OC[C@H]1O[C@H](O[C@]2(CCl)O[C@H](CCl)[C@@H](O)[C@@H]2O)[C@H](O)[C@@H](O)[C@H]1Cl [Sucralose, sucralose]
# output 6.6

# input Output measured S/N for this item: C[C@H](NC(=Nc1ccc(C#N)cc1)NCC(=O)O)c1ccccc1 [SC-45647]
# output 7.7

# input Report S/N for O=C1NS(=O)(=O)c2ccccc21.[Na] [Saccharin Na, sodium saccharin]
# output 6.1

* * *

Would you kindly list S/N for each of these compounds?
molecular target: hT1R2/T1R3mosaicB (UniProt Q8TE23+Q925D8, A558R/A588V/A645S/A698V/A702T/A793V/A807V/A88D/C582S/C678S/E725V/F541I/F612A/F622V/F695L/F71L/G86K/H728R/I152V/I617V/I706V/I740A/I803L/K555R/K565R/K818R/K827G/L151M/L560F/L684P/L68N/L72W/L735F/L823M/L825Q/M644L/M744T/M74L/N547G/N675D/P545F/P561R/P564S/P67S/Q123R/Q550E/Q611L/Q757R/Q795R/Q831P/R632Q/S112P/S124D/S576L/S595F/S610P/S635P/S637R/S679G/S717H/T109A/T542A/T663I/T694M/T813A/V120A/V573A/V584A/V718M/V723A/V729T/V738A/V805L/V812A/V821L/W599R/W676R/W824R/Y680C/Y794L); conditions: Table 6; genes hT2/T1R3mB (hT1R2, T1R3mB); HEK293E cells
Residues, ends and D or L forms follow the SMILES beside them.

# input Tell us which S/N value is on record for COC(=O)[C@H](Cc1ccccc1)NC(=O)[C@@H](N)CC(=O)O [Aspartame, aspartame] (HELM PEPTIDE1{D.F.[CO[*:1]]}$$$$V2.0)
# output 5.4

# input Entry COc1ccc(CCC(=O)c2c(O)cc(O[C@@H]3O[C@H](CO)[C@@H](O)[C@H](O)[C@H]3O[C@@H]3O[C@@H](C)[C@H](O)[C@@H](O)[C@H]3O)cc2O)cc1O [NHDC, neohesperidin dihydrochalcone] needs its S/N filled in; supply it.
# output 4.8

# input Give S/N for "C[C@H](NC(=Nc1ccc(C#N)cc1)NCC(=O)O)c1ccccc1"
# output 7.0

# input Note down S/N recorded for "COC(=O)[C@H](Cc1ccccc1)NC(=O)[C@H](CC(=O)O)NCCC(C)(C)C"
# output 6.0

# input Supply measured S/N of "OC[C@H]1O[C@@](CO)(O[C@H]2O[C@H](CO)[C@@H](O)[C@H](O)[C@H]2O)[C@@H](O)[C@@H]1O" in your reply.
# output 4.7

# input Return S/N for the following compound: "OC[C@H]1O[C@H](O[C@]2(CCl)O[C@H](CCl)[C@@H](O)[C@@H]2O)[C@H](O)[C@@H](O)[C@H]1Cl"
# output 4.1

# input Look up and report measured S/N for this entry: "COC(=O)[C@H](Cc1ccccc1)NC(=O)[C@H](CC(=O)O)NCCCc1ccc(OC)c(O)c1"
# output 8.5

# input Please report S/N for the following compound: "CC1=CC(=O)NS(=O)(=O)O1"
# output 5.5

# input Report measured S/N; entry is O=C1NS(=O)(=O)c2ccccc21.[Na] [Saccharin Na, sodium saccharin]
# output 5.4

* * *

biological target: hT1R2/T1R3mosaicC (UniProt Q8TE23+Q925D8, A558R/A588V/A645S/A698V/A702T/A793V/A807V/C582S/C678S/D172E/D176A/D217E/E221Q/E725V/F541I/F612A/F622V/F695L/H728R/I617V/I706V/I740A/I803L/K555R/K565R/K818R/K827G/L560F/L684P/L735F/L823M/L825Q/M644L/M744T/N203E/N231A/N547G/N675D/P545F/P561R/P564S/Q195T/Q550E/Q611L/Q757R/Q795R/Q831P/R173L/R632Q/S168G/S205G/S228A/S576L/S595F/S610P/S635P/S637R/S679G/S717H/T199E/T542A/T663I/T694M/T813A/V197A/V198A/V573A/V584A/V718M/V723A/V729T/V738A/V805L/V812A/V821L/W599R/W676R/W824R/Y680C/Y794L); details: Table 6; genes hT2/T1R3mC (hT1R2, T1R3mC); HEK293E cells
Sequence (Q8TE23 20-839, stated change not applied): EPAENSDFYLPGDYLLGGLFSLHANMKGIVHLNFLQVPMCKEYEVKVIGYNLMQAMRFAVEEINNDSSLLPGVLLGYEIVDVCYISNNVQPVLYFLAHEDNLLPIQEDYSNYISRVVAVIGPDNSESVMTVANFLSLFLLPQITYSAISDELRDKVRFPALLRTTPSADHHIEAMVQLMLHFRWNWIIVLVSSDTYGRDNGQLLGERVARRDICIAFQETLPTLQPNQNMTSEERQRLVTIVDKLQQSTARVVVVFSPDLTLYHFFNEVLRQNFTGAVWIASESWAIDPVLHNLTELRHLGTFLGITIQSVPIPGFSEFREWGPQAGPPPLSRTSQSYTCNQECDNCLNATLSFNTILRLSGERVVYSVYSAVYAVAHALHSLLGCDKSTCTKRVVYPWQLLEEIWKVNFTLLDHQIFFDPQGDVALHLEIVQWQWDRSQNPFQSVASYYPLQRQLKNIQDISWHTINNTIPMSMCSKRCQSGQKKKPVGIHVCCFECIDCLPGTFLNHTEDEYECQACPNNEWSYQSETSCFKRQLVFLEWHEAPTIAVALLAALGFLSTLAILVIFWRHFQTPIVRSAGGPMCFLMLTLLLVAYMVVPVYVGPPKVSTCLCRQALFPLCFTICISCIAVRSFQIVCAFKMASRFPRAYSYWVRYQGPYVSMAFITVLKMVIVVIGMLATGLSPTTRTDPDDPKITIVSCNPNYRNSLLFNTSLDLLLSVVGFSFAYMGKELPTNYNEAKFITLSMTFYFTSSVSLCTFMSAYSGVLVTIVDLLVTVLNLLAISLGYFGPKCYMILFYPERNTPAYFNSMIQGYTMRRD
Sequence (Q925D8 with tags, fused parts or gaps with the stated changes limits assumed): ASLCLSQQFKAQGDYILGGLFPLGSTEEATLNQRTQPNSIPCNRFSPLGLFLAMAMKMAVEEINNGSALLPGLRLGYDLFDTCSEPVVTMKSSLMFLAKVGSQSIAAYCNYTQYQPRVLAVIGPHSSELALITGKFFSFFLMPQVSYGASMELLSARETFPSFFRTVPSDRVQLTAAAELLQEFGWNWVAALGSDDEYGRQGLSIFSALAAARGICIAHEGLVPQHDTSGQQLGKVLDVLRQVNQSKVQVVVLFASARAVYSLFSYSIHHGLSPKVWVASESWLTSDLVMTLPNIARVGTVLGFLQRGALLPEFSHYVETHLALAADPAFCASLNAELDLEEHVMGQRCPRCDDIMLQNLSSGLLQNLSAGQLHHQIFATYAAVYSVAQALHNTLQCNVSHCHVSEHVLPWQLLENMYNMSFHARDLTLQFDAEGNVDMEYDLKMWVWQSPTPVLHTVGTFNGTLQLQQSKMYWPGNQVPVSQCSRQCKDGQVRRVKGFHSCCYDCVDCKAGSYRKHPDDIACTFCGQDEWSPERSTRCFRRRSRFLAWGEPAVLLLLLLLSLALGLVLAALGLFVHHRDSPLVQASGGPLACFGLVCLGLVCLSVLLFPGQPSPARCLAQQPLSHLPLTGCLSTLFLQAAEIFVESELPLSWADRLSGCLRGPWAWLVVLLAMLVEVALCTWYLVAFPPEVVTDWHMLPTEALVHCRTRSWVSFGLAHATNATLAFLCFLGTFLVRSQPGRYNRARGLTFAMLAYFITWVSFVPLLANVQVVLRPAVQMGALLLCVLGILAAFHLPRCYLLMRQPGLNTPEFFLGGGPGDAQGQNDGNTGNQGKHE
Residues, ends and D or L forms follow the SMILES beside them.
Returns one of yes or no; yes when S/N is >= 4.

# input Hi team, for "OC[C@H]1O[C@H](O[C@]2(CCl)O[C@H](CCl)[C@@H](O)[C@@H]2O)[C@H](O)[C@@H](O)[C@H]1Cl" , is the recorded S/N at or above 4?
# output yes

# input Given the entry "C[C@H](NC(=Nc1ccc(C#N)cc1)NCC(=O)O)c1ccccc1" , answer whether its S/N meets or surpasses 4.
# output yes

# input Kindly determine if S/N recorded for "CC1=CC(=O)NS(=O)(=O)O1" is above or exactly 4.
# output no

# input Threshold query (S/N >= 4) on COc1ccc(CCC(=O)c2c(O)cc(O[C@@H]3O[C@H](CO)[C@@H](O)[C@H](O)[C@H]3O[C@@H]3O[C@@H](C)[C@H](O)[C@@H](O)[C@H]3O)cc2O)cc1O [NHDC, neohesperidin dihydrochalcone]
# output no

# input Say whether "COC(=O)[C@H](Cc1ccccc1)NC(=O)[C@H](CC(=O)O)NCCCc1ccc(OC)c(O)c1" shows S/N of 4 or more.
# output yes

# input Kindly determine if S/N recorded for O=C1NS(=O)(=O)c2ccccc21.[Na] [Saccharin Na, sodium saccharin] is above or exactly 4.
# output no

# input hey, is S/N for this one >= 4? "OC[C@H]1O[C@@](CO)(O[C@H]2O[C@H](CO)[C@@H](O)[C@H](O)[C@H]2O)[C@@H](O)[C@@H]1O"
# output no

# input Can "COC(=O)[C@H](Cc1ccccc1)NC(=O)[C@H](CC(=O)O)NCCC(C)(C)C" be said to have S/N at or above 4?
# output yes

# input In plain terms: is recorded S/N at least 4 for COC(=O)[C@H](Cc1ccccc1)NC(=O)[C@@H](N)CC(=O)O [Aspartame, aspartame] (HELM PEPTIDE1{D.F.[CO[*:1]]}$$$$V2.0) ?
# output yes
